- systemTested: Fatty-acid amide hydrolase 1 (Homo sapiens)
- Sequence (O00519 whole entry): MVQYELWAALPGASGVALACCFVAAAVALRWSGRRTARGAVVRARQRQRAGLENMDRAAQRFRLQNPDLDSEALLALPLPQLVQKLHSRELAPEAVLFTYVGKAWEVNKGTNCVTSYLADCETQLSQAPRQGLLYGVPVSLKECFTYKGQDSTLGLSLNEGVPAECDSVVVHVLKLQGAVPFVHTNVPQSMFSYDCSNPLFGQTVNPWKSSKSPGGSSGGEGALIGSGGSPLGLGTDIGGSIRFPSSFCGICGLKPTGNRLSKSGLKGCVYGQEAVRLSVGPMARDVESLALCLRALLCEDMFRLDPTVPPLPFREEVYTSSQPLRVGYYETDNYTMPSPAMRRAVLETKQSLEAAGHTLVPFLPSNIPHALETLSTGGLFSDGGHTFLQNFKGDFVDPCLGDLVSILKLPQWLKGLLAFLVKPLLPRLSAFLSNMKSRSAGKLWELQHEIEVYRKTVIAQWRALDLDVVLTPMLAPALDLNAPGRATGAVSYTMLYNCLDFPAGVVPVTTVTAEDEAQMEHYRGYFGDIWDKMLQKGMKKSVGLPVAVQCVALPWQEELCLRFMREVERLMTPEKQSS
- protocolDescription: Displacement of [3H]ethanolamine from human recombinant FAAH by liquid scintillation counting
pIC50: −log10 of the molar value.
Rule: pIC50 of 4 or more gives t; anything lower gives f.

>>> categorylabel("O=C1C=CC(=O)N1CCCCN1C(=O)C=CC1=O")
"t"
>>> categorylabel("Cc1cccc(N2C(=O)C=CC2=O)c1")
"f"
>>> categorylabel("O=C1C=CC(=O)N1Cc1ccc(CN2C(=O)C=CC2=O)cc1")
"t"
>>> categorylabel("Cc1ccc(N2C(=O)C=CC2=O)cc1")
"f"
>>> categorylabel("O=C1C=CC(=O)N1c1ccc(Br)cc1")
"t"
>>> categorylabel("O=C1C=CC(=O)N1c1ccccc1Br")
"f"

Q: Could you verify whether the entry COc1cccc(N2C(=O)C=CC2=O)c1 shows pIC50 of no less than 4?
Result: f

Q: Could you verify whether the entry O=C1C=CC(=O)N1c1ccccc1 shows pIC50 of no less than 4?
Result: f

FYI, the data here is from ChEMBL document CHEMBL1154772.
